Let's look at some compounds and their measured AUC.
ASSAY INFO: Effect of fluvoxamine co-administration on tasimelteon pharmacokinetics
Format: in vivo, human
TEST CONDITIONS: both sexes, human, in vivo; Day 1: 5.667 mg tasimelteon alone
Numbers only; they are read as ng·h/mL.

The examples below pair each entry with its known result.
CCC(=O)NC[C@@H]1C[C@H]1c1cccc2c1CCO2 (relative stereo) [Tasimelteon]: 102
CCC(=O)NC[C@@H]1C[C@H]1c1cccc(O)c1CC(=O)O [M9]: 104

Query compound follows.
QUERY: I have this compound here, CCC(=O)NC[C@@H]1C[C@H]1c1cccc(O)c1CCO [M11] , and I need its recorded AUC.
RESULT: 44.5

---

ASSAY INFO: Effect of smoking on concentration of tasimelteon and metabolites
Type: in vivo, human
TEST CONDITIONS: Smokers vs Non-Smokers
REPORTED METRIC: Geometric Mean Ratio, t1/2

CCC(=O)NCC1CC1c1cccc2c1CC(O)O2 (stereo not drawn) [M13]: 77.51%
CCC(=O)NCC1CC1c1cccc2c1C(O)CO2 (stereo not drawn) [M12]: 73.31%
CCC(=O)NC[C@@H]1C[C@H]1c1cccc(O)c1CCO [M11]: 94.13%
CCC(=O)NCC1CC1c1cccc2c1C(O)CO2 (stereo not drawn) [M14]: 65.09%

QUERY: I have this compound here, CCC(=O)NC[C@@H]1C[C@H]1c1cccc(O)c1CC(=O)O [M9] , and I need its recorded Geometric Mean Ratio, t1/2.
RESULT: 85.40%

QUERY: What do you have for CCC(=O)NC[C@@H]1C[C@H]1c1cccc2c1CCO2 (relative stereo) [Tasimelteon] ?
RESULT: 86.84%

---

Let's look at some molecules and their measured Geometric Mean Ratio, AUC (inf).
ASSAY INFO: Effect of smoking on concentration of tasimelteon and metabolites
Format: in vivo, human
TEST CONDITIONS: Smokers vs Non-Smokers
Numbers only; they are read as %.

CCC(=O)NC[C@@H]1C[C@H]1c1cccc(O)c1CCO [M11]: 81.84
CCC(=O)NC[C@@H]1C[C@H]1c1cccc(O)c1CC(=O)O [M9]: 74.36
CCC(=O)NCC1CC1c1cccc2c1CC(O)O2 (stereo not drawn) [M13]: 97.31
CCC(=O)NCC1CC1c1cccc2c1C(O)CO2 (stereo not drawn) [M14]: 42.98
CCC(=O)NCC1CC1c1cccc2c1C(O)CO2 (stereo not drawn) [M12]: 84.87

Query molecule follows.
QUERY: I have this molecule here, CCC(=O)NC[C@@H]1C[C@H]1c1cccc2c1CCO2 (relative stereo) [Tasimelteon] , and I need its recorded Geometric Mean Ratio, AUC (inf).
RESULT: 60.14

---

Let's look at some compounds and their measured Geometric Mean Ratio, Cmax.
ASSAY INFO: Effect of fluvoxamine co-administration on tasimelteon pharmacokinetics
Format: in vivo, human
TEST CONDITIONS: Day 8 (with fluvoxamine) vs Day 1
Numbers only; they are read as %.

CCC(=O)NC[C@@H]1C[C@H]1c1cccc2c1CCO2 (relative stereo) [Tasimelteon]: 232.74

QUERY: I have this compound here, CCC(=O)NCC1CC1c1cccc2c1C(O)CO2 (stereo not drawn) [M12] , and I need its recorded Geometric Mean Ratio, Cmax.
RESULT: 92.74

QUERY: What do you have for CCC(=O)NC[C@@H]1C[C@H]1c1cccc(O)c1CCO [M11] ?
RESULT: 68.71
